# tested-on: T1, NativeRPtag(large)_with_Tags_and_Cys (Thermoanaerobacter tengcongensis)
# T1 construct: Unlabeled in anisotropy assays; coupled through the engineered N-terminal Cys to SulfoLink agarose or maleimide plates in column, pull-down and ELISA assays
# T1 chain: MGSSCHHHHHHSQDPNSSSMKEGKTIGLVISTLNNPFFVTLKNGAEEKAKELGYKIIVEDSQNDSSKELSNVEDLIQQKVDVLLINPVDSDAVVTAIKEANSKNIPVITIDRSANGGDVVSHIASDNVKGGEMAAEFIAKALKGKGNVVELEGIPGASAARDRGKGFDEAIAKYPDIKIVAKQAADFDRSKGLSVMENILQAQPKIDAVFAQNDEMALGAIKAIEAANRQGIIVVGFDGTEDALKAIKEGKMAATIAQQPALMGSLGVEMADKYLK
# run-description: fluorescence anisotropy; KCl (3M)
No end group written: not given here. *: point of attachment. RhodamineB = CCN(CC)c1ccc2c(-c3ccccc3C(=O)*)c3ccc(=[N+](CC)CC)cc-3oc2c1
value-kind: pKd
Give bare numbers, as −log10 of the molar value.

input: Given RhodamineB-KIANFIPAELKLITKANVQ (also: also used unlabeled as competitor, Rhodamine labeled in the Kd assays; also called RPtag(small) (tight)) [RPtag(small) Nd2, p5a, e18a] , state its recorded pKd.
output: 10.96

Hey, just so you know, these numbers are from patent US20200102347A1.
